Ref: PubChem BioAssay AID1471

Here, each record is paired with measured Potency data.
Experiment: qHTS Multiplex Assay to Identify Dual Action Probes in a Cell Model of Huntington: Cytoprotection (ATP); note: nearly all actives have a fitted effect of over 45% in size; note: potency is the fitted concentration of half-maximal effect
Conditions: PC12 HTT-Q103 induced, ATP luminescence, 40 h; series mostly up to 56.4 µM
From the text: NIH Chemical Genomics Center [NCGC] NIH Molecular Libraries Probe Production centers Network [MLPCN] Assay Submitter (PI): Wei Zheng […] A stable PC12 cell line containing a gene fusion of Exon 1 of the Huntingtin gene linked to GFP under the control of the inducible ecdysone promoter were used as the cell-based model of Huntington Disease for high throughput screening. […] The cell death were quantified with a measurement of ATP content in the cells. […]
Out of some 230,000 compounds screened, about 310 (0.13%) were called active. Another 2% or so got no clear call; they are omitted. This excerpt belongs to a sample that is enriched for actives.
assay metric: Potency

>  <compound>
N#Cc1ccc(-c2nc3cc(C#N)c(C#N)cc3nc2-c2ccccc2)cc1C#N

>  <reported result>
2.82 µM (active)

$$$$
>  <compound>
CCCCc1nnc(NC(=O)CSc2nc(N)cc(=O)[nH]2)s1

>  <reported result>
3.16 µM (active)

$$$$
>  <compound>
O=C(CSc1ncnc2c1nnn2Cc1ccc(F)cc1)NC1CCCC1

>  <reported result>
1.26 µM (active)

$$$$
>  <compound>
COc1ccc(-c2nc(-c3ccccc3)no2)c(OC)c1

>  <reported result>
5.62 µM (active)

$$$$
>  <compound>
CSCCC(=O)N1CCCC(CNC(=O)c2ccccc2Cl)C1 (stereo not given)

>  <reported result>
2.82 µM (active)

$$$$

====

test: qHTS Multiplex Assay to Identify Dual Action Probes in a Cell Model of Huntington: Cytoprotection (ATP); conditions: PC12 HTT-Q103 induced, ATP luminescence, 40 h; series mostly up to 56.4 µM; note: nearly all actives have a fitted effect of over 45% in size;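 for cytoprotection (ATP increase): toxic huntingtin expression switched on by the ecdysone agonist tebufenozide; % of control where 0% means no effect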
Screen size: about 230,000 compounds; about 310 (0.13%) were called active. Roughly 2% stayed inconclusive and do not appear here. This excerpt belongs to a sample that is enriched for actives.
assay metric: cytoprotection (ATP increase)

>  <compound>
O=C1OCCN1C(=O)[C@H]1[C@H](c2ccccc2)C(c2ccc(F)cc2)=NN1c1ccccc1

>  <assay metric>
cytoprotection (ATP increase)

>  <reported result>
inactive

$$$$
>  <compound>
Cc1ccc(Nc2nc(N)nc(CSc3nnc(C)s3)n2)cc1

>  <assay metric>
cytoprotection (ATP increase)

>  <reported result>
18.8% [at 10 µM] (inactive)

$$$$
>  <compound>
CC(C)=CCC[C@]1(C)[C@@H](CC=C(C)C)C[C@@]2(CC=C(C)C)C(=O)[C@]1(C(=O)C(C)C)C(=O)C(CC=C(C)C)=C2O

>  <assay metric>
cytoprotection (ATP increase)

>  <reported result>
inactive

$$$$
>  <compound>
COc1ccc2c(c1)O[C@@H](c1ccc3c(c1)OCO3)[C@H](OC(=O)NCc1ccco1)C2=O

>  <assay metric>
cytoprotection (ATP increase)

>  <reported result>
inactive

$$$$
>  <compound>
COc1ccc(NC(=S)NC2CCS(=O)(=O)C2)cc1 (stereo unspecified)

>  <assay metric>
cytoprotection (ATP increase)

>  <reported result>
2.72% [at 0.074 µM] (inactive)

$$$$
>  <compound>
COc1ccc2c(c1)O[C@@H](c1ccc3c(c1)OCO3)[C@H](OC(=O)NCCc1ccc(OC)c(OC)c1)C2=O

>  <assay metric>
cytoprotection (ATP increase)

>  <reported result>
inactive

$$$$
